Assay: Pre-clinical pharmacokinetic feasibility study of oxybutynin cream on shaved rabbit backs
Format: in vivo, rabbits
Settings: rabbit, in vivo, topical or ocular, 5 mg
Readout label: Tmax (h)
Just the number in h, nothing appended.

Req: Given CCN(CC)CC#CCOC(=O)C(O)(c1ccccc1)C1CCCCC1 (stereo not shown) [Oxybutynin, oxybutynin] , state its recorded Tmax.
Resp: 6

* * *

Reported values of melting point for individual entries

CCCCCCCC/C=C\CCCCCCCC(=O)OCCCCCCCCCCCCCCCC [Cetyl Oleate] ... 58 to 60 °C
CCCCCCCCCCCCCCCCOC(=O)CCCCCCCCCCC [Cetyl Laurate] ... 43 to 45 °C
CCCCCCCCCCCCCCCCOC(=O)CCCCCCCCCCCCC [Cetyl Myristate] ... 45 to 48 °C
CCCCCC/C=C\CCCCCCCC(=O)OCCCCCCCCCCCCCCCC [Cetyl Palmitoleate] ... 45 to 52 °C
CCCCCCCCCCCCCCCCOC(=O)CCCCCCCCC [Cetyl Decanoate] ... 40 to 44 °C

Req: Given CCCCCCCCCCCCCCCCOC(=O)CCCCCCC [Cetyl Octanoate] , state its recorded melting point.
Resp: 52 to 60 °C

Req: Given CCCCCCCCCCCCCCCCCC(=O)OCCCCCCCCCCCCCCCC [Cetyl Stearate] , state its recorded melting point.
Resp: 62 to 70 °C

* * *

Assay: Pre-clinical pharmacokinetic feasibility study of oxybutynin cream on shaved rabbit backs
Type: in vivo, rabbits
Settings: rabbit, in vivo, topical or ocular, 5 mg
Readout label: Cmax (ng/mL)
Just the number in ng/mL, nothing appended.

Req: Given CCN(CC)CC#CCOC(=O)C(O)(c1ccccc1)C1CCCCC1 (stereo not shown) , state its recorded Cmax.
Resp: 9.33

* * *

Assay: Pre-clinical pharmacokinetic feasibility study of oxybutynin cream on shaved rabbit backs
Format: in vivo, rabbits
Settings: rabbit, in vivo, topical or ocular, 5 mg
Readout label: AUC(0-t)

Req: Given CCN(CC)CC#CCOC(=O)C(O)(c1ccccc1)C1CCCCC1 (stereo not shown) , state its recorded AUC(0-t).
Resp: 22 ng·h/mL

Each recorded value in this set is attributed to patent US9084818B2.
